B1: tRNA (parent)
chain: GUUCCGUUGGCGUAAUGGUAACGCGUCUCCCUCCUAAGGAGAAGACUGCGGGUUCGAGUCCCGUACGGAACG

# Variants of: B1
# procedure-details: yeast fitness relative to wild type (ratio to wild type); higher = fitter; tRNA-Arg(CCU), competitive growth, 37 C, YPD
This sample holds only a part of the variants without activity.
So I've got a bunch of variants here, and I need their yeast fitness values.

Fill blank: measured yeast fitness of the variant C11U C60G is ____.
0.607

How about this variant: U7C A42G
0.716

Also, G17A C33G A40U G51C please.
≤ 0.5

Then what about the variant U2G U8C C22U C24G U32C A37G A69G A70G ?
≤ 0.5

Query U2A C27A C34U next
≤ 0.5

Further, for A14U G18C A70G ?
0.715

Another: G38A G58C
1

Please do the same for U13C G52A C55G A69U as well.
≤ 0.5

Moving on to the next variant: C22U C29A U47C G68A A69C
≤ 0.5

Subsequent entry: U3C C22G C27G C31G C61G A69U
0.615

Would you kindly repeat that for A37U A45U G68U ?
≤ 0.5

Another variant to look at: U7A C11U U16A G25A
≤ 0.5

Please do the same for C5G A21C A45G G68A as well.
≤ 0.5

Param item: A21U U28A A40U A45U
0.878

Repeat with C22A C46G G52A
≤ 0.5

Repeat for the following variant: U26A C29U C33U C62G
1.09

Continue with C4G C29U C30G G39C
≤ 0.5

Now the variant U7C G41A A42C G50C G67U
≤ 0.5

Now this one: C29U C33U G39C A57U
≤ 0.5

Now the same for C4U G12C U54G
≤ 0.5

Next variant: U3A G12C U13C C49U G56C
≤ 0.5

Likewise for G17A C30G ?
0.604

Can you check C4A C5U U8C U64A next?
≤ 0.5

Try this variant too: G23C C29G G63C C66G
≤ 0.5

Query A45G C49U C55G C61G next
0.732

What do we get for U8C C29G A37G G67C ?
0.573

Another: A36G G67C
0.759

Next up: C30U C31A
0.754

Now try A20U C34G G48C .
0.53

Entry C11U G18C C31A please
≤ 0.5

Please give the result for A15G G67C too.
0.706
